Molecular target: CDK3_CycE1 (Homo sapiens, UniProt Q00526)
Construct: purchased Reaction Biology
Sequence (Q00526 whole entry): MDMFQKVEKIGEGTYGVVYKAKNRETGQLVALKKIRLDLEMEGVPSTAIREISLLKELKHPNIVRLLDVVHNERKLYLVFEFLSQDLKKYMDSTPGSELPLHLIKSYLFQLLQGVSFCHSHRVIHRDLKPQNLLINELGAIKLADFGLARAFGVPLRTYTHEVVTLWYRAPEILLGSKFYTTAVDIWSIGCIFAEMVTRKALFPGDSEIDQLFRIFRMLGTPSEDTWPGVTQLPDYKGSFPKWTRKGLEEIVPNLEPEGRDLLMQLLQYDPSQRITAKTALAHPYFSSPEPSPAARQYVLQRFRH
Sequence (P24864 whole entry partner): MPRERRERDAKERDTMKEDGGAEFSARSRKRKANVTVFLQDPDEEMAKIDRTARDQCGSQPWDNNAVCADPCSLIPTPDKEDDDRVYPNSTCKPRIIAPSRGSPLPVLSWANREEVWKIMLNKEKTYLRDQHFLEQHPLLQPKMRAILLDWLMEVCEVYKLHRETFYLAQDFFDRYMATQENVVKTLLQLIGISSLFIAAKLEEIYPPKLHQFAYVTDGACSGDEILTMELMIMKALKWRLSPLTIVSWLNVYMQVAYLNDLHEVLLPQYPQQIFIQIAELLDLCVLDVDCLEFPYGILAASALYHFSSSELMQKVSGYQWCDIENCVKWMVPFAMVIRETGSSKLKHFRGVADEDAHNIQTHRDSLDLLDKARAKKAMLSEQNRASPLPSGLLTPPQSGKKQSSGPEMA
Test: Radiometric protein kinase assay (33PanQinase), CDK3_CycE1
Assay type: biochemical
Details: slope of the IC50 fit
Kindly supply the reported Hill Slope values for the records listed here.
One number for each entry.

Consider the worked cases shown below.
                                   compound  observation_type  readout_value
0  Cn1ncc2cc(-c3cnc(N)c(Cl)c3N3CCC4(CCNC4=O)CC3)ccc21        Hill Slope          -0.12
1  Cc1c(Br)c(Br)c2c3c1nc(N1CCNCC1)n3CCC2.Cl [SEL120-34A, reference compound]        Hill Slope          -0.48
2  Cn1cc(-c2ccc(-c3cncc(Cl)c3N3CCC4(CCNC4=O)CC3)cc2)cn1        Hill Slope          -0.16
3  Cc1n[nH]c2ncc(C(=O)N3CCC[C@H]3c3ccc(Cl)cc3)cc12        Hill Slope          -0.54

Problem: Please indicate Hill Slope recorded for CN1CCN(C(=O)c2ccc3cc(CCNc4ncnc5ccc(C#N)cc45)ccc3c2)CC1 [Senexin B, reference compound]
Result: -0.36
